tested on: A549/ATCC NSCLC; experiment: NCI-60 one-dose screen, 48 h; conditions: 10 µM unless noted
This is part of a sample that, as a whole, favours compounds with a hit. Of some 83,000 tested, about 20% had one in any assay. Activity calls are given as the source filed them. Rule for the calls: active = growth percent below 10; inactive = the rest.
Mark one answer only. Choices: active, inactive

O=S(=O)(NCCCNc1nccc(-c2c(-c3cccc(F)c3)nc3occn23)n1)c1ccc(F)cc1    inactive
Nc1[nH]c(=S)nc2oc(-c3ccccc3)c(-c3ccccc3)c12    inactive
C=C(C)[C@@H]1CC[C@]2(C)[C@H](CC=C3[C@@H]4CC(C)(C)CC[C@]4(CO)CC[C@]32C)[C@@]1(C)CCCN    active
C#Cc1cccc(Nc2nc(C)nc3cc(NC(=O)CCl)ccc23)c1    active
C=C1C(=O)O[C@H]2[C@H]1CC/C(CNC(=O)c1c[nH]c3ccc(F)cc13)=C\CC[C@@]1(C)O[C@@H]21    inactive

Below: the item to evaluate.
What outcome does the record of this test show for "CC1(C)[C@@H](O[C@@H]2OC[C@@H](O[C@@H]3O[C@H](CO)[C@@H](O)[C@H](O)[C@H]3O[C@@H]3OC[C@@H](O)[C@H](O)[C@H]3O)[C@H](O)[C@H]2O[C@@H]2O[C@H](CO)[C@@H](O)[C@H](O)[C@H]2O)CC[C@]2(C)[C@H]3CC[C@]45OC[C@@]6(CC[C@](C)(C=O)C[C@H]64)[C@H](O)C[C@@]5(C)[C@]3(C)CC[C@@H]12" ?
active
